Data origin, for the record: patent US20200392228A1

Target: T1, human MAdCAM expressed on cells (human, UniProt Q13477 19-382)
T1 construct: whole, on cells; also called MADCAM1
T1 sequence (looked up): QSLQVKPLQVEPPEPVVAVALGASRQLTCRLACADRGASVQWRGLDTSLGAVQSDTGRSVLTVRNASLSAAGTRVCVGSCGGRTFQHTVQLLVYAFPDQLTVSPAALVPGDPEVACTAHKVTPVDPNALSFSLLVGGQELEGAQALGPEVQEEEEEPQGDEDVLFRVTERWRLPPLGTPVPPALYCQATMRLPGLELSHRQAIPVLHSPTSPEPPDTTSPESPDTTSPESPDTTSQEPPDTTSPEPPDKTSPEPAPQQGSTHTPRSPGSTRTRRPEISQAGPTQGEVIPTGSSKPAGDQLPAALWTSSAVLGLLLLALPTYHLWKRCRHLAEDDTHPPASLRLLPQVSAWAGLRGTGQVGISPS
Assay: cell binding

{"columns": ["binder", "binding result"],
 "data": [
  ["MAdCAM antibody Clone ID 54 of Table 6 (scFv) (scFv) scFv: EVQLLESGGGLVQPGGSLRLSCAASGFTFGDYAMSWVRQAPGKGLEWVAVVSYDGTNKYYADSVKGRFTISRDNSKNTLYLQMNSLRAEDTAVYYCAKDICSSTSCYFDLWGRGTLVTVSSGGGGSGGGGSGGGGSGGGGSDIQMTQSPSSLSASVGDRVTITCRASQNINNYVNWYQQKPGKAPKLLIYDASNLETGVPSRFSGSGSGTDFTLTISSLQPEDFATYYCQQANSFPPTFGQGTRLEIK", "binds"],
  ["MAdCAM antibody Clone ID 38 of Table 6 (scFv) (scFv) scFv: EVQLLESGGGLVQPGGSLRLSCAASGFTFGSYSMSWVRQAPGKGLEWVSAIGTGGGTYYADSVKGRFTISRDNSKNTLYLQMNSLRAEDTAVYYCAKGTPYYYYYGMDVWGQGTMVTVSSGGGGSGGGGSGGGGSGGGGSDIQMTQSPSSLSASVGDRVTITCRASQPLSNWLAWYQQKPGKAPKLLIYAASSLQSGVPSRFSGSGSGTDFTLTISSLQPEDFATYYCQQAISFPLTFGGGTKVEIK", "binds"],
  ["MAdCAM antibody Clone ID 11 of Table 6 (scFv) (scFv) scFv: QVQLVQSGAEVKKPGASVKVSCKASGYTFTTYYMHWVRQAPGQGLEWMGGFDPEDGETIYAQKFQGRVTMTRDTSTSTVYMELSSLRSEDTAVYYCARHAVAGAVGAGYYYYGMDVWGQGTMVTVSSGGGGSGGGGSGGGGSGGGGSDIQMTQSPSSLSASVGDRVTITCRASESISNWLAWYQQKPGKAPKLLIYAASTLQSGVPSRFSGSGSGTDFTLTISSLQPEDFATYYCQQSYSVPFTFGPGTKVDIK", "binds"]
]}
